ASSAY_TEXT: A CellTox Green Cytotoxicity Assay to monitor cytotoxicity in HEK293 cells - 0 hour (AID 1224869); also: nearly all actives have a fitted effect of over 50% in size
CONDITION_SUMMARY: CellTox Green fluorescence; series mostly up to 76.8 µM
Calls of active or inactive are those of the source. Calls follow the shape of the dose curve; as a rule, active = well fitted activation curve with a large enough effect in the repeat runs; inconclusive = weak or mixed curves; inactive = flat fitted curve, though single readings scatter.
RECORDED_METRIC: cytotoxicity

CCCCCCCC[Si](OCC)(OCC)OCC :: inactive
CN[C@@H]1[C@@H](O)[C@@H](O[C@@H]2[C@H](O)[C@H](O[C@H]3OC(CN)=CC[C@H]3N)[C@@H](N)C[C@H]2N)OCC1(C)O (stereo not given in full) :: inactive
O=C(Oc1ccccc1C(=O)O)c1ccccc1O :: inactive
c1ccc(CNc2ncnc3nc[nH]c23)cc1 :: inactive
Cc1cccc(C(=O)O)c1[N+](=O)[O-] :: inactive
CCCCCCCCCCCCCCCCCCN(C)C :: inactive
CCC(=O)OCCC(C)CCC=C(C)C (stereo not given) :: inactive
CCCCCC(=O)OCC :: inactive

Record summary for F[Si-2](F)(F)(F)(F)F : reported cytotoxicity = inactive

Record summary for Nc1cc(Cl)cc(S(=O)(=O)O)c1O : reported cytotoxicity = inactive

Record summary for CCCCCCCCCCCCCC(=O)OC : reported cytotoxicity = inactive

Record summary for O=S(=O)(O)c1cc(O)ccc1O : reported cytotoxicity = inactive

Record summary for CCCCC[Si](OCC)(OCC)OCC : reported cytotoxicity = inactive

Record summary for CCCCCCCCCOCC1CO1 (stereo not given) : reported cytotoxicity = inactive

Record summary for CC(C)(C)NCCO : reported cytotoxicity = inactive

Record summary for CN=C(NC#N)NCCSCc1csc(N=C(N)N)n1 : reported cytotoxicity = inactive

Record summary for Cc1nc(C)nc(N2C[C@@H](C)N(c3ccnc([C@@H](C)O)n3)[C@@H](C)C2)n1 : reported cytotoxicity = inactive

Record summary for C=CCOc1cc(Cl)ccc1C(=O)NCCN(CC)CC : reported cytotoxicity = inactive

Record summary for CC1CCC(C(C)(C)S)C(=O)C1 (stereo not given) : reported cytotoxicity = inactive

Record summary for O=C1OC(=O)c2ccccc21 : reported cytotoxicity = inactive

Record summary for CC(C)COC(=O)CCCCC(=O)OCC(C)C : reported cytotoxicity = inactive

Record summary for O=C(COCCOCCOCC(=O)Nc1c(I)cc(I)c(C(=O)O)c1I)Nc1c(I)cc(I)c(C(=O)O)c1I : reported cytotoxicity = inactive

Record summary for Cc1nc([N+](=O)[O-])cn1-c1ccc([N+](=O)[O-])cc1 : reported cytotoxicity = inactive

Record summary for NC(=O)NNC(N)=O : reported cytotoxicity = inactive

Record summary for O=C(c1ccc2c(c1)C(=O)OC2=O)c1ccc2c(c1)C(=O)OC2=O : reported cytotoxicity = inactive

Record summary for CC(=O)c1ccc(OCC(=O)N2CCCCC2)cc1 : reported cytotoxicity = inactive

Record summary for COCC(=O)Nc1c(I)c(C(=O)NCC(O)CO)c(I)c(C(=O)N(C)CC(O)CO)c1I (stereo not given) : reported cytotoxicity = inactive

Record summary for CCCCC(CC)C(=O)OC(C)C (stereo not given) : reported cytotoxicity = inactive

----------
ASSAY_TEXT: qHTS assay for small molecule agonists of the antioxidant response element (ARE) signaling pathway - cell viability counter screen (AID 743203); also: nearly all actives have a fitted effect of over 55% in size
CONDITION_SUMMARY: ARE-bla HepG2 viability, CellTiter-Glo luminescence, 16 h; series mostly up to 73.3 µM
From the text: National Center for Advancing Translational Sciences [NCATS] NIH Chemical Genomics Center [NCGC] U.S. Environmental Protection Agency [EPA] National Institutes of Environmental Health Sciences [NIEHS] National Toxicology Program [NTP] U.S. Food and Drug Administration [FDA] Oxidative stress has been implicated in the pathogenesis of a variety of diseases ranging from cancer to neurodegeneration. […] The activation of the report gene under culture conditions can be detected by fluorescence intensity. […]
Inconclusive results are not listed. Active and inactive are the calls of the source. Calls come from the whole dose curve.
RECORDED_METRIC: viability change, negative = cytotoxic

CCN(CCO)c1cccc(C)c1 :: inactive
C=C(C)[C@@H]1CC[C@@H](C)C[C@@H]1O :: inactive
CC(C)SCc1ccco1 :: inactive

----------
TEST_SYSTEM: Cytochrome P450 2C9 (Homo sapiens)
ASSAY_TEXT: Cytochrome P450 Family 2 Subfamily C Member 9 (CYP2C9) small molecule antagonists: luciferase reporter qHTS assay (AID 1671198); also: nearly all actives have a fitted effect of over 50% in size
CONDITION_SUMMARY: P450-Glo CYP2C9 enzyme assay, luciferin luminescence; series mostly up to 115 µM
Results filed as inconclusive are left out. Active and inactive are the calls of the source. Calls come from the whole dose curve; as a rule, active = well fitted inhibition curve with a large enough effect in the repeat runs; inconclusive = weak or mixed curves; inactive = no such curve, though single readings can be large or run the other way.
Respond using exactly one of the listed classes: t (active), f (inactive)

Q: How did this test come out for O=CN1CCOCC1 ?
A: f

Q: How did this test come out for O=P(O)(O)OCC(O)CO (stereo unspecified) ?
A: f

Q: How did this test come out for CCNC(=O)/C=C/c1cccc(Br)c1 ?
A: f

Q: How did this test come out for CCCCCCCCCCCCC ?
A: f

Q: How did this test come out for Cc1nc([N+](=O)[O-])cn1-c1ccc([N+](=O)[O-])cc1 ?
A: f

Q: How did this test come out for CC(C)SCc1ccco1 ?
A: f

Q: How did this test come out for NS(=O)(=O)c1ccccc1OC(F)(F)F ?
A: f

Q: How did this test come out for CCCCC[Si](OCC)(OCC)OCC ?
A: t

Q: How did this test come out for NC(=O)C1(N2CCCCC2)CCN(CCCC(=O)c2ccc(F)cc2)CC1 ?
A: f

Q: How did this test come out for Cn1c(=O)c2c(ncn2CC2OCCO2)n(C)c1=O ?
A: f

Q: How did this test come out for CC(=O)OC(C(=O)c1ccccc1)c1ccccc1 (stereo unspecified) ?
A: t

Q: How did this test come out for C/C=C(\C)C(=O)OCC/C=C\CC ?
A: f

Q: How did this test come out for CCC(CO)CO ?
A: f

Q: How did this test come out for CC(=O)c1ccc(OCC(=O)N2CCCCC2)cc1 ?
A: f

Q: How did this test come out for C1=C\CC/C=C\CC/1 ?
A: f

Q: How did this test come out for C=C(C)C(=O)OC ?
A: f

Q: How did this test come out for O=C(O)CCNC(=O)c1ccccc1 ?
A: f

Q: How did this test come out for COC(/C=C(\C)CCC=C(C)C)OC ?
A: f

Q: How did this test come out for CO[Si](CCCCl)(OC)OC ?
A: t

Q: How did this test come out for Cc1ccc(S(=O)(=O)NC(=O)NC2CCCCCCC2)cc1 ?
A: t

Q: How did this test come out for CC1CCC(C(C)(C)S)C(=O)C1 (stereo unspecified) ?
A: t

Q: How did this test come out for C=C(C)[C@@H]1CC[C@@H](C)C[C@@H]1O ?
A: f

Q: How did this test come out for CC(C)COC(=O)CC(C(=O)OCC(C)C)S(=O)(=O)O (stereo unspecified) ?
A: t

Q: How did this test come out for C1=CCC(c2ccccc2)CC1 (stereo unspecified) ?
A: f

Q: How did this test come out for CC(C)(C)NCCO ?
A: f

Q: How did this test come out for CCC(C)N (stereo unspecified) ?
A: f

----------
TEST_SYSTEM: Cytochrome P450 2D6 (Homo sapiens)
ASSAY_TEXT: Cytochrome P450 Family 2 Subfamily D Member 6 (CYP2D6) small molecule antagonists: luciferase reporter qHTS assay (AID 1671196); also: nearly all actives have a fitted effect of over 50% in size
CONDITION_SUMMARY: P450-Glo CYP2D6 enzyme assay, luciferin luminescence, 1 h; series mostly up to 115 µM
Results filed as inconclusive are left out. The source made the active and inactive calls. Calls follow the shape of the dose curve; as a rule, active = well fitted inhibition curve with a large enough effect in the repeat runs; inconclusive = weak or mixed curves; inactive = no such curve, though single readings can be large or run the other way.
Respond using exactly one of the listed classes: 1 (active), -1 (inactive)

Q: How did this test come out for O=C(O)c1ccc(OCCN2CCCCC2)cc1 ?
A: -1

Q: How did this test come out for CCCCOC(=O)C(=O)OCCCC ?
A: -1

Q: How did this test come out for Nc1ccc(C(=O)OCC(O)CO)cc1 (stereo unspecified) ?
A: -1

Q: How did this test come out for Cc1cc(C)cc([N+](=O)[O-])c1 ?
A: -1

Q: How did this test come out for Cc1ccccc1C(=O)N1CC/C(=N\OS(=O)(=O)O)c2ccc(Cl)cc21 ?
A: -1

Q: How did this test come out for O=C(O)c1ccccc1C(=O)Nc1ccc(S(=O)(=O)Nc2nccs2)cc1 ?
A: -1

Q: How did this test come out for CCC(C)(CCC(C)C)C(=O)[O-].CCC(C)(CCC(C)C)C(=O)[O-].[Zn+2] (stereo unspecified) ?
A: -1

Q: How did this test come out for Cc1nc(C)nc(N2C[C@@H](C)N(c3ccnc([C@@H](C)O)n3)[C@@H](C)C2)n1 ?
A: -1

Q: How did this test come out for C=C(C)[C@@H]1CC[C@@H](C)C[C@@H]1O ?
A: -1

Q: How did this test come out for O=C1NC2NC(=O)NC2N1 (stereo unspecified) ?
A: -1

Q: How did this test come out for CC1=NN(c2ccc(S(=O)(=O)O)cc2)C(=O)C1N=Nc1ccccc1 (stereo unspecified) ?
A: -1

Q: How did this test come out for O=C1c2ccccc2-c2ccccc21 ?
A: -1

Q: How did this test come out for O=P(O)(O)OCC(O)CO (stereo unspecified) ?
A: -1

Q: How did this test come out for O=S(=O)(O)SSS(=O)(=O)O ?
A: -1

Q: How did this test come out for CCC(CO)CO ?
A: -1

Q: How did this test come out for O=C(O)/C=C/c1ccccc1 ?
A: 1

Q: How did this test come out for CC(=O)c1ccc2c(c1)CCCC2 ?
A: -1

Q: How did this test come out for NC(=O)C1(N2CCCCC2)CCN(CCCC(=O)c2ccc(F)cc2)CC1 ?
A: 1

Q: How did this test come out for CN(C)CCCNCCC#N ?
A: -1

Q: How did this test come out for FC(F)(F)c1ccc(Cl)cc1Cl ?
A: -1

Q: How did this test come out for CCCCCC1CCCC(=O)O1 (stereo unspecified) ?
A: -1
